Cited source: patent US20200199213A1

Target: T1, human ANGPTL8 (human, UniProt Q6UXH0 22-198)
T1 construct: Biotinylated in the ELISA assays; also called hANGPTL8; free ANGPTL8
T1 sequence: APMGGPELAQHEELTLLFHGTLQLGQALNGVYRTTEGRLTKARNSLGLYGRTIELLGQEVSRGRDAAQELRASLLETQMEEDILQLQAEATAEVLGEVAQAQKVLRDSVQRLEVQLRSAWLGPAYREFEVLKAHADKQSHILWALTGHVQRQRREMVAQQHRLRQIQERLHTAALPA
Assay: ELISA; Ab captured by anti-human Fc; biotinylated antigen at 1.23 nM

Binder	Reading Unit	OD at 560 nm
anti-ANGPTL3/8 complex Ab having a LC of SEQ ID NO:5 and a HC of SEQ ID NO:6 (antibody, human IgG4 S228P, kappa, F234A L235A, V domains shown, In the ELISA assays tested as IgG from CHO supernatants; also called the Ab) VH: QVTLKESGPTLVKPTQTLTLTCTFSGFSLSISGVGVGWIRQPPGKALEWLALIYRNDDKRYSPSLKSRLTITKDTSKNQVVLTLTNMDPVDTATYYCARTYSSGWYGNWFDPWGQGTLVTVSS VL: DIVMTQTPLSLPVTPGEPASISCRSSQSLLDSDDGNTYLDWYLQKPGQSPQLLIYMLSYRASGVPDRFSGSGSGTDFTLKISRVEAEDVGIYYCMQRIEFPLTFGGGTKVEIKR	OD 560 nm	0.043
Ab with LC variant having a E99Q mutation (SEQ ID NO:25) and a HC of SEQ ID NO:6 (antibody, human IgG4 S228P, kappa, F234A L235A, V domains shown, also called E99Q Variant Ab; E99Q Ab) VH: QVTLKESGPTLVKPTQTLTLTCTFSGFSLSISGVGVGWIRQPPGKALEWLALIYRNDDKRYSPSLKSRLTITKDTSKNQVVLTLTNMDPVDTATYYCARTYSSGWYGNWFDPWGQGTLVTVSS VL: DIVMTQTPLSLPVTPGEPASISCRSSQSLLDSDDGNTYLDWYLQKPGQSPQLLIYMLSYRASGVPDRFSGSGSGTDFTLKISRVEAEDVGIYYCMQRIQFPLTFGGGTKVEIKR	OD 560 nm	0.058
Ab with LC variant having a D33A mutation (SEQ ID NO:22) and a HC of SEQ ID NO:6 (antibody, human IgG4 S228P, kappa, F234A L235A, V domains shown, also called D33A Variant Ab; D33A Ab) VH: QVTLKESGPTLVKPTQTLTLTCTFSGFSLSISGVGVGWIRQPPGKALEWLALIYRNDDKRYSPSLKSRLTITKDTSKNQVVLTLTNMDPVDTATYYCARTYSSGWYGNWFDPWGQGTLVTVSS VL: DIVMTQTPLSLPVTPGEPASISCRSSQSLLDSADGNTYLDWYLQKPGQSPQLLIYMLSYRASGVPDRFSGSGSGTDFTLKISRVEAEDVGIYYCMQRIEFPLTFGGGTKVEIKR	OD 560 nm	0.049
Ab with LC variant having a D31S mutation (SEQ ID NO:21) and a HC of SEQ ID NO:6 (antibody, human IgG4 S228P, kappa, F234A L235A, V domains shown, also called D31S Variant Ab; D31S Ab) VH: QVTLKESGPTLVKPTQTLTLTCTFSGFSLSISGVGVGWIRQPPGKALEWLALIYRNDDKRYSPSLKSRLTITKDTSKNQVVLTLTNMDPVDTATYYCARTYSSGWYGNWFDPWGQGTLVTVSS VL: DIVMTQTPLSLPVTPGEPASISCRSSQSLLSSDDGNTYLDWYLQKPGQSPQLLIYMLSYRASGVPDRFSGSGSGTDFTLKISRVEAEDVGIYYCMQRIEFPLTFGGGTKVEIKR	OD 560 nm	0.058
